Reference for the values: the pKa sets of Baltruschat and Czodrowski (2020)

# experimental_setup: basic group
measured_parameter: pKa
The answer should be written as a number, with no unit following it.

Observe how each entry below is paired with its result.
| compound | pKa |
| --- | --- |
| CCCCSCCN | 8.37 |
| c1ccc2scnc2c1 | 1.38 |
| N[C@H]1CCCC[C@@H]1C(=O)Oc1ccc([N+](=O)[O-])cc1 | 8.57 |
| Cc1nc(-c2ccccc2)[nH]c1C | 7 |
| Cc1ccc(/N=C/N(C)C)cc1 | 9.21 |

Value of measured pKa for the entry C=CCN(CC(C)O)CC(C)O (stereo not drawn) : 8.2

Value of measured pKa for the entry NCCCBr : 8.93

Value of measured pKa for the entry [O-]c1nncc2ccccc12 : 12
